Reference source: PubChem BioAssay AID540253

target or test system: Snurportin-1 (Homo sapiens) + GTP-binding nuclear protein Ran (Homo sapiens) + Importin subunit beta-1 (Homo sapiens) (UniProt O95149+P62826+Q14974)
assay details: qHTS Assay for Inhibitors of RanGTP induced Rango (Ran-regulated importin-beta cargo) - Importin beta complex dissociation; further: nearly all actives have a fitted effect of over 45% in size
condition summary: Biochemical FRET Rango-importin beta; series mostly up to 46.1 µM
Description: NIH Molecular Libraries Probe Production Centers Network [MLPCN] NIH Chemical Genomics Center [NCGC] […] The assay used a fluorescence resonance energy transfer (FRET) Rango biosensor that contains the IBB of human snurportin 1 flanked by yellow fluorescent protein (EYFP) at the amino terminus and cerulean CFP10 at the carboxy terminus. […] FRET readings were obtained at two time points. […]
The campaign covered roughly 340,000 compounds. About 240 (0.071%) were called active. The call rests on the fitted dose curve. The sample holds actives, similar compounds and a random draw of the others, so the mix is not that of the screen.
Valid outcomes are listed here; reply with one: active, inactive

Below, 6 molecules whose answers are already recorded.
- molecule: "CCN1C[C@@H]2[C@@H]3C(=O)N(C)C(=O)[C@@H]3[C@](C)(C1=O)N2C(=O)c1ccccc1"
  group: "inactive"
- molecule: "O=C(NN=Cc1ccc([N+](=O)[O-])cc1)C1CC1"
  group: "inactive"
- molecule: "CCCCN=C1N/C(=C\\c2ccco2)C(=O)N1c1ccccc1"
  group: "active"
- molecule: "CC(NC(=O)c1ccccc1)C(=O)Nc1ccccc1 (centres undefined)"
  group: "inactive"
- molecule: "O=C(Nc1ccn(CCCNCc2ccc3[nH]ccc3c2)c(=O)n1)OCc1ccccc1"
  group: "inactive"
- molecule: "Cc1ccc(OCCNC(=O)c2cccc(S(=O)(=O)N3CCN(Cc4ccccc4)CC3)c2)cc1"
  group: "inactive"

Task: Record request — test call for O=C(O)C(c1cccs1)C1(O)CCCCC1 (centres undefined)
Result: inactive

Task: `Nc1cc2c(cc1Br)-c1ccc(F)cc1C2=O` , same question.
Result: inactive

Task: O=C1OCC2=C1C(c1ccc(Cl)cc1)c1cc3c(cc1O2)OCO3 (centres undefined) , same question.
Result: inactive

Task: `CCOC(=O)N(Cc1ccccc1)C1CC1` , same question.
Result: inactive

Task: `OCCN1CCN(CCO)C1=S` , same question.
Result: inactive

Task: `CC(C)(C)c1nnc2sc(SCC(O)=C(C#N)c3nc4ccccc4[nH]3)nn2c1=O` , same question.
Result: inactive

Task: `C/C(=N\Nc1ccc(Cl)nn1)c1ccccc1O` , same question.
Result: inactive

Task: `COc1cc(O)c2c(=O)c3c(O)c(O)ccc3oc2c1OC` , same question.
Result: inactive
